These data points were gathered from PubChem BioAssay (EPA / NIEHS).

Read-out: CD40, CD40 (gene 958)
Test: BSK_SAg_CD40: BioMAP Diversity Plus: SAg Assay for CD40 Biomarker Activity (AID 2283088)
Details: primary human HUVEC with PBMC; actives raise or lower the signal
The source made the active and inactive calls. How the source made its calls: active means hit-call score of the fitted dose curve at least 0.9, where 1 is the maximum; inactive means score below 0.9.
// one of active, inactive, no free text

Kindly provide the recorded test outcome for the following compound: CC(C)CCO
inactive

Kindly provide the recorded test outcome for the following compound: CC(C)=CCC/C(C)=C/CO
inactive

###

Experiment: APR_HepG2_CellLoss_72hr: Apredica 72-hour HepG2 Assay for Cell Loss (AID 2282915)
Settings: high-content imaging
Description: APR_HepG2_72hr is a cell-based, multiplexed-readout assay that uses HepG2, a human liver cell line, with measurements taken at 72 hours after chemical dosing in a 384-well plate.APR_HepG2_CellLoss_72hr is one of 10 assay component(s) measured or calculated from the APR_HepG2_72hr assay. […] This assay endpoint, APR_HepG2_CellLoss_72hr, was analyzed with bidirectional fitting relative to DMSO as the negative control and baseline of activity. […]
Calls of active or inactive are those of the source. Rule for the calls: active = hit-call score of the fitted dose curve at least 0.9, where 1 is the maximum; inactive = score below 0.9.
// one of active, inactive, no free text

Kindly provide the recorded test outcome for the following compound: CC[C@H](C)C(=O)O[C@H]1C[C@@H](C)C=C2C=C[C@H](C)[C@H](CC[C@@H]3C[C@@H](O)CC(=O)O3)[C@H]21
active

Kindly provide the recorded test outcome for the following compound: CCCCCCc1ccc(O)cc1O
active

Kindly provide the recorded test outcome for the following compound: O=P(OC(CCl)CCl)(OC(CCl)CCl)OC(CCl)CCl
active

Kindly provide the recorded test outcome for the following compound: CCOCCO
inactive

Kindly provide the recorded test outcome for the following compound: CNCc1ccc(NC(=O)c2c[nH]c3c2C(=O)CCC3)cc1
active

Kindly provide the recorded test outcome for the following compound: COCCOCCOCCOC
inactive

Kindly provide the recorded test outcome for the following compound: CCCCCCCCCCCCc1ccccc1
inactive

Kindly provide the recorded test outcome for the following compound: O=C(O)CCN(C1(C(=O)NO)CCCC1)S(=O)(=O)c1ccc(Oc2ccc(F)cc2)cc1
inactive

Kindly provide the recorded test outcome for the following compound: COc1ccc2sc(C(=O)Nc3nnn[nH]3)c(OC(C)C)c2c1
active
